# Tested on: MS2 coat protein
# TEST SUMMARY: apparent KD of MS2 coat protein; designed switch direction (-1 OFF switch, 1 ON switch): -1; higher = weaker reporter binding
# MEASUREMENT PARAMETERS: Eterna round: R95; input ligand: none
Each entry below carries its reported apparent KD of MS2 coat protein.
MEASURED ATTRIBUTE: apparent KD of MS2 coat protein (µM)

entry_sequence="AGUAACUAUCACGAAAGUGAUAGUUACGCAAGCAGUGAAACAUGAGGAUCACCCAUGUCCUCAUUUGCUCGUCUUAU [Sensor 3 - 26] (puzzle: Sensor v3, turn-off variant 2)" unit_tag=µM meas_value=0.0486
entry_sequence="AAGAAACAUGAGGAUCACCCAUGUGAGGAUAUGGAAAAGAAAAGAAAAGAAAGAAGAAUCAGAAGGCACAAAGG [salish99-ex1_r3_020] (puzzle: Exclusion 1)" unit_tag=µM meas_value=0.0376
entry_sequence="ACAAGCUUUUUGCUCGUCUACAUGAGGAUCACCCAUGUAGUGAGAUAGUGGUGAAGAUAGAUUGAGCGUAGUAGGUA [JR_SV3TOV1_Sub071] (puzzle: Sensor v3, turn-off variant 1)" unit_tag=µM meas_value=0.0215
entry_sequence="GAUGUGGGUUUUCAGAGUAACAUGAGGAUCACCCAUGUAGAAGUUGGAGGGAUCAAGCUUUUUGGUCGUCAUAUGUG [JR_SV3TOV1_Sub051] (puzzle: Sensor v3, turn-off variant 1)" unit_tag=µM meas_value=0.509
entry_sequence="AGUAACUAUCACGAAAGUGAUAGUUACAAACAAGUGGAAACAUGAGGAUCACCCAUGUCCUCAUUUGCUCGUCUUAU [Sensor 3 - 6] (puzzle: Sensor v3, turn-off variant 2)" unit_tag=µM meas_value=0.503

* * *

# Tested on: MS2 coat protein
# TEST SUMMARY: apparent KD of MS2 coat protein, switch ON state; designed switch direction (-1 OFF switch, 1 ON switch): -1; higher = weaker reporter binding
# MEASUREMENT PARAMETERS: FMN input: 0 or 200 uM; Eterna round: R93 (includes R88 designs)
Known apparent KD of MS2 coat protein of a selection of sequences
MEASURED ATTRIBUTE: apparent KD of MS2 coat protein (nM)

entry_sequence="AGCAAACAUGAGGAUCACCCAUGUCAGGAUAUGAACGAAAUAAAUAAAAAAUAAAAGUUCAGAAGGGACGAGCA [Mat - Exclusion 1 - Eli mod - D25]" meas_value=32.4
entry_sequence="AAGAAGGUAGGAUAUACAUGAGGAUCACCCAUGUAAAAGAAAGAAAAGGGAAAGAAAAGUAGAAGGACCAAGAA [Kheperkheperure Ay]" meas_value=32.9
entry_sequence="AAAAAGUCAGGAUAUUCGGAAGGGAAAGCGCAAACCCAACCGAAGAAGGGACAUGAGGAUCACCCAUGUGGAAA [Ecls4-III 65% - Late G segment 1]" meas_value=79

* * *

# Test system: MS2 coat protein
# TEST SUMMARY: apparent KD of MS2 coat protein; designed switch direction (-1 OFF switch, 1 ON switch): -1; higher = weaker reporter binding
# MEASUREMENT PARAMETERS: input ligand: microRNA oligo, concentration not stated
Reported apparent KD of MS2 coat protein by item:
MEASURED ATTRIBUTE: apparent KD of MS2 coat protein (nM)

entry_sequence="CUAAAUCAUGUAGGAUAUGCAUAGCGAAGCUAUGCAGAAGGACAUGAGGAUCACCCAUGUUCUUCCGUCUGAGUACAGACGGAA [Mat - Exclusion NG 1 - Mod of JL - D31] (Eterna round: R96, puzzle: Exclusion NG 1)" tgt="MS2 coat protein" unit_tag=nM meas_value=30.6
entry_sequence="ACAUGAGGAUCACCCAUGUCAACGAAAAGGCUCAUGUAGAGUGAGGAUAUGUGAGACGAACGAGAACAGAAGGCACAAGACAGG [Deportation 3 - Jieux - Exclusion NG 3] (Eterna round: R96, puzzle: Exclusion NG 3)" tgt="MS2 coat protein" unit_tag=nM meas_value=16.6
entry_sequence="CUGCUCCGUGUAGGAUAUCCGCGCAACCAACGCGGAGAAGGACAUGAGGAUCACCCAUGUAUGUUAUUAUCACGUGAAGCGUCC [Design 29] (Eterna round: R96, puzzle: Exclusion NG 1)" tgt="MS2 coat protein" unit_tag=nM meas_value=15.5
entry_sequence="UAUAAAACAUAGGAUAUCGAAAUUAUCAUUUAACGAGAAGGAUGAACAUGAGGAUCACCCAUGUGGUAUCAUGG [Mat - Exclusion 6 - JL Mod - D10] (Eterna round: R96, puzzle: Exclusion 6)" tgt="MS2 coat protein" unit_tag=nM meas_value=328

* * *

# Test system: K4 kissing-loop RNA reporter;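 also: bound reporter read as fluorescence of individual clusters on recovered sequencing chips by microscopy, with normalized cluster intensities fitted with a binding model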
# TEST SUMMARY: apparent KD of K4 kissing-loop reporter; higher = weaker reporter binding
# MEASUREMENT PARAMETERS: Eterna round: R107; input ligand: none
Use 200 nM as the dividing line for apparent KD of K4 kissing-loop reporter, with the line itself on the Criterion met side and lower values as Criterion not met.

entry_sequence="UGGAGUUGACGAAAAGUCAACUCCUGAGAUACCAGUGACGAAAGUCACCCUUGGCAGCUCACUGGCAGUGAUGUUGCUAAAUAAA [KL-SSTheo-A2]" tgt="K4 kissing-loop RNA reporter" group="Criterion not met"
entry_sequence="GUAUUUCCCUCGGAUACCAGUCAUCAUGAGUAUAGUGAUGUUGUACGUCCGGAUGAUUUUGACCCUUGGCAGCCGUCUCCUUGAA [theeternabot_sameState_KL_Theo_B_49]" tgt="K4 kissing-loop RNA reporter" group="Criterion met"
entry_sequence="CGAUGUUCCUGGGAUACCAGUCGGAGUCUCAGAGCUCGGAGUGAUGUUCUGGGAUGUUUCGGCCCUUGGCAGCUCUGGGACUCCU [#2 Exclusion - Theophylline B Attempt #22 (HarryS)]" tgt="K4 kissing-loop RNA reporter" group="Criterion met"
entry_sequence="ACUGGAAUUGUACUCCAGUGAUGUUGGAGGCAGGAUAUCCAGUAAAGGAGAAGGGCCAUCGCGCUAUUUAGCCGCAGGCGGCUAA [Atrilazaed]" tgt="K4 kissing-loop RNA reporter" group="Criterion not met"
entry_sequence="AAUAUCUAGUAUAUAUUUAAUAAAACAGAUACCAGUGAUAAUAGACACCCUUGGCAGCUGGACGAGUGAUGUUCGUAUAUAUUAA [JR_SSTheophyA_Sub007]" tgt="K4 kissing-loop RNA reporter" group="Criterion not met"
entry_sequence="CUAUAGACCCUUCGGAUAGUGAUGUUGUCACGAGGACCGGUACGGCCGCCACUCGCUGCCACCAUACCGCUUCACGGAACGAGCA [theeternabot_exclusion_KL_Trp_A_7]" tgt="K4 kissing-loop RNA reporter" group="Criterion met"
entry_sequence="UGAUAGGACAGAAGGAGCGGAGCUGGUCAAAGACCAGCAAUAACGUUGAAAGGAGUGAUGUUCCAGGUAGGUCGCUGUCCUAUCU [ArgBX 26 #SwitchBubble #StaticStem]" tgt="K4 kissing-loop RNA reporter" group="Criterion not met"
entry_sequence="UAACGGCAACAAGGAUAUCCCAGUGAUGUUGGGAGAUAUUGACUAAGGAGACAUGAUAGGCAUAAUGGAGAAGGUGUGUUGGGAG [theeternabot_exclusion_KL_FMN_B_19]" tgt="K4 kissing-loop RNA reporter" group="Criterion not met"
entry_sequence="UAACAGUCUACGGCCGCCACUGACAAUCGGCAAGCAACAUGUGGGUGCGUAGUGAUGUUACAUAUCAGGACCGGGUAAGACAAAU [theeternabot_sameState_KL_Trp_B_32]" tgt="K4 kissing-loop RNA reporter" group="Criterion met"
entry_sequence="GUAUCGCUAGGAGGAUAUGUCGUUUUUCAUAGCAAUGGCUGUGCGGAGUGAUGUUCCGAUUUACCGGCAGAAGGCCUAGUGAUAC [FMN B 28]" tgt="K4 kissing-loop RNA reporter" group="Criterion not met"
entry_sequence="AGACUACUGACAGGAUAUGGCAUCCUGGUCGUAUACCGAAAGGUAUACGAUUUUCUUCUAGUGAUGUUAGAAGGGUCGGUAGUCA [Omei KL FMN B Exc B v15]" tgt="K4 kissing-loop RNA reporter" group="Criterion not met"
entry_sequence="CGUUUAUAGCAGGAUACCAGUACCCAUUAAGUACGUUAAUAGUAGAGUGAUGUUCUAAAGUACCCUUGGCAGCUUCCCGUGACCC [ExTheophylB.X]" tgt="K4 kissing-loop RNA reporter" group="Criterion not met"

* * *

Each record here notes measured apparent KD of MS2 coat protein.
# Tested on: MS2 coat protein
# TEST SUMMARY: apparent KD of MS2 coat protein; higher = weaker reporter binding
# MEASUREMENT PARAMETERS: Eterna round: R107; input ligand: arginine 13.2 mM
MEASURED ATTRIBUTE: apparent KD of MS2 coat protein (nM)

entry_sequence=UGUAUGUGAUCUGAUACCAGAGUUGAUAACCUGAGGAUCACCCUGGUAAGGCGAAAGCCACUCCCUUGGCAGCAGAUCGCAUACU measured_attribute="apparent KD of MS2 coat protein" meas_value=131
entry_sequence="AGCGACAUGCAUGAUACCAGCUACAUGAGGAUCACCCAUGUACGUCAGUAAUGACUGUGUAGCCCUUGGCAGCAUAAAGCAUGUC [Exclusion - Theophylline B (Freestyle 17)]" measured_attribute="apparent KD of MS2 coat protein" meas_value=22.8
entry_sequence="GCAUGCGAUACCGAUACCAGCUACUCCAUGGCGCUCCACAUGAGGAUCACCCAUGUAAAUAGCCCUUGGCAGCGGUAUUGAGAUG [Anrabegema]" measured_attribute="apparent KD of MS2 coat protein" meas_value=16.4
entry_sequence="AGCCCUGUACUAGAUACCAGCUACAUGAGGAUCACCCAUGUACGAUAAGACUGUCCAUGUAGCCCUUGGCAGCUGCUCGCAUGUA [#13 Exclusion-TheophyllineB]" measured_attribute="apparent KD of MS2 coat protein" meas_value=24.1
entry_sequence=UGGUACAUGGCGGCCGCCACUUCACGUAAAAUAAAAACGUGAGGAUCACCCACGUAAUAAGUUGGGAGGACCGGGUCAUGUACCU measured_attribute="apparent KD of MS2 coat protein" meas_value=122
entry_sequence="ACAUGAGGAUCACCCAUGUGCCGUCUUGAUACCAGACCCGAAGUAGUCCCUUGGCAGCAACUACGUGACGGUCGCGCAUGUGUAG [kaomullin]" measured_attribute="apparent KD of MS2 coat protein" meas_value=16.3

Reference for the values: the supplement of paper PMC9170038
